System: TO-3-N3 (biotin conjugate)
Assay: pull-down binding Z-score (relative to library population); higher = stronger binding
Details: RNA library: Library-2
Could you label it yes if measured pull-down binding Z-score is -0.02 or higher, and no otherwise?

* CGGACACCCGGCCUCCACUUUCUGUGGCAGGUACCUCCUCCA [hsa-mir-4505] | yes
* CUAACAAUCUAGUUGUAAUGGCCUACAUUACAGGUGGUGUUGUUCAG [SHAPE_invivo_SARS-CoV-2_Motif_39] | no
* AGGUGGAAAGGGAGCAGGAGCAUCGUCUUUAAGAGGGUCAGGUACCUUUGCUCUUA [hsa-mir-6083] | yes
* AUUGAGAGUUCCUUCUCCUGCUCCUGAU [hsa-mir-6766] | no

For the next question, use this sequence.
Task: Has AAAUUGCCGAUAAGUAUGUCCGCAAUUU a recorded pull-down binding Z-score greater than or equal to -0.02?
Output: no
